# Test system: HCT-15 colon
# TEST DETAILS: NCI-60 one-dose screen, 48 h (100 = growth as untreated, 0 = no growth, -100 = all killed)
# RUN CONDITIONS: 10 µM unless noted
Compounds without any hit were thinned out: in the full panel of roughly 83,000, 20% have a hit.
PARAMETER: growth (%)
Record the value in %, omitting the unit from your answer.

The cases that follow already have their growth on record.
# COMPOUND, growth [%]
measured = [
    ("CCOC(=O)c1c(C)oc2ncnc(Nc3ccc(NC(=O)Nc4cccc(Cl)c4)cc3)c12", 59),
    ("CC(=O)CCS(=O)c1ccccc1 (stereo not given)", 110),
    ("CC(C)(C)c1ccc(OCCOC(=O)CBr)cc1", 97.9),
    ("O=C(N/N=C/c1ccccc1Cl)c1cccc2ccccc12", 102),
]

Next item in the queue.
Ask: Which growth is reported for this compound? "O=C(Nc1ccc(Cl)c(Cl)c1)O/N=C\c1c(Cl)ccc([N+](=O)[O-])c1Cl"
Result: -3.17

----------
# Test system: SK-MEL-28 melanoma
# TEST DETAILS: NCI-60 one-dose screen, 48 h
# RUN CONDITIONS: 10 µM unless noted
# Experimental: Growth inhibition of the SK-MEL-28 human tumor cell line is measured as a screen for anti-cancer activity. Cells are grown in 96 well plates and exposed to the test compound for 48 hours. Compounds are tested at a single concentration, which is 10^-5 M for most compounds. The reported endpoint is percent growth (GI% or GIPRCNT), where numbers from 0 - 100% represent growth inhibition, and numbers from -100% - 0 represent cell death. For example, a value of 40 represents 60% growth inhibition. […]
The panel holds about 83,000 compounds, 20% with a hit somewhere; the sample as a whole holds those more often. Calls of active or inactive are those of the source. Rule for the calls: active = growth percent below 10; inactive = the rest.
Outcome (select one): Y (active), N (inactive)

# COMPOUND, CLASS NAME
measured = [
    ("Oc1ccc(CN(Cc2ccc(C(F)(F)F)cc2)Cc2ccc(O)c3ncccc23)c2cccnc12", "N"),
    ("CC(=O)c1cc(Nc2cc(C)nc(N)n2)cc(C(C)=O)c1", "N"),
    ("COC(=O)/C=C1/CCCCC1(C)C(=O)OC (stereo not given)", "N"),
    ("COc1ccc(CN2C(=O)/C(=C\\C(=O)c3ccc(OCCN4CCCCC4)cc3)c3ccccc32)cc1", "N"),
    ("CCCCCSc1ccc2nc(NC(=O)OCCC)sc2c1", "N"),
]

Ask: Check the results log: what was the call for "C=CCNCCC#N" ?
Result: N

Ask: Check the results log: what was the call for "COc1ccccc1C(=O)Nc1cccc(-c2cc(=O)c3c(OC)c(OC)c(OC)cc3o2)c1" ?
Result: N

Ask: Check the results log: what was the call for "COc1cc2ncnc(Nc3ccc4c(cnn4C(=O)Nc4ccccc4)c3)c2cc1OC" ?
Result: N

Ask: Check the results log: what was the call for CC(=O)OCC1O[C@@H](OC(C)=O)[C@@H](NC(=O)NS(=O)(=O)c2ccccc2)C(OC(C)=O)[C@@H]1OC(C)=O (stereo not given in full) ?
Result: N

Ask: Check the results log: what was the call for "CCn1cnc(C[C@H](NC(=O)[C@@H](NC(=O)Nc2cc(C(F)(F)F)cc(C(F)(F)F)c2)C(C)(C)C)C(=O)OC)c1" ?
Result: Y

Ask: Check the results log: what was the call for "O=C(Nc1ccccc1)Nc1ccc(Nc2ncnc3sc4c(c23)CCCC4)cc1" ?
Result: N

Ask: Check the results log: what was the call for "CCN(CC)c1ccc2nc3ccc(N=Nc4ccc(O)cc4)cc3[n+](-c3ccccc3)c2c1" ?
Result: N

Ask: Check the results log: what was the call for "Cc1cc2cn3c4ccc(O)cc4nc(N)c3c2cc1C" ?
Result: Y

Ask: Check the results log: what was the call for "CC(=O)/C(=C\c1c(-c2ccccc2)[nH]c2ccccc12)S(=O)(=O)c1ccccc1" ?
Result: N

Ask: Check the results log: what was the call for "CC(=O)Nc1nc(C)c(C(=O)N/N=C/c2cccs2)s1" ?
Result: N

Ask: Check the results log: what was the call for "C=CCNC(=S)NNc1ccc([N+](=O)[O-])cn1" ?
Result: N

Ask: Check the results log: what was the call for "CC1(C)Oc2cc3oc(=O)ccc3cc2C[C@@H]1OCCOS(=O)(=O)c1ccc(C#N)cc1" ?
Result: N

Ask: Check the results log: what was the call for "O=C1C(Cl)=C(Nc2ccc(Nc3ccccc3)c(NC3=C(Cl)C(=O)c4ccccc4C3=O)c2)C(=O)c2ccccc21" ?
Result: N

Ask: Check the results log: what was the call for "Ic1ccc(SSc2ccc(I)cc2)cc1" ?
Result: N

Ask: Check the results log: what was the call for "COc1ccc2oc(=O)cc(CN3C(=O)S/C(=C\c4ccc(Cl)cc4)C3=O)c2c1" ?
Result: N

Ask: Check the results log: what was the call for "Cc1ncc(C(=O)Nc2ccc(CN3CCN(C)CC3)c(C(F)(F)F)c2)cc1C#Cc1cnc(NC2CC2)c2ncccc12" ?
Result: Y

Ask: Check the results log: what was the call for CCC(C)[C@H](NC(=O)Nc1cc(C(F)(F)F)cc(C(F)(F)F)c1)C(=O)N[C@@H](Cc1cn(C)cn1)C(=O)OC (stereo not given in full) ?
Result: Y

Ask: Check the results log: what was the call for CCC(C)CC(N)O (stereo not given) ?
Result: N

Ask: Check the results log: what was the call for "CCOC(=O)CSSCC(=O)OCC" ?
Result: N
